For each record, write down the corresponding kon.
- System: T1, human TSLP (human, UniProt Q969D9 29-159)
- T1 construct: also called hTSLP; rhTSLP
- Assay info: SPR
Value expressed in M⁻¹ s⁻¹; do not type the unit.

**Query** Returns the measured kon for the input binder. Input: BDG38.117 (antibody, V domains shown, IgG1) VH: QMQLVESGGGVVQPGRSLTLSCAASGFEFRTYGMHWVRQAPGKGLEWVGVIWDDGSNTHYADSVKGRFTITRDNSKNTLNLQMNSLRAEDTAVYYCARAPQWYLTAEAFDLWGQGTMVTVSS VL: SYVLTQPPSVSVAPGETATITCGGNLIGAKLVHWYQQKPGQAPVLVIYDDSDRPSRIPERFSGSNIGNTATLTIEDVEAGDEADYYCQVWDYSSDTMVFGGGTKLTVL
**Result** 7.07e+06

**Query** Further, for BDG38.094 (antibody, V domains shown, IgG1) VH: QMQLVESGGGVVQPGRSLRLSCAASGFAFRTYGMHWVRQAPGKGLEWVAVIWDDGSNTHYADSVKGRFTITRDNSKNTLNLQMNSLRAEDTAVYYCVRAPQWYLTAEAFDLWGQGTMVTVSS VL: SYVLTQPPSVSVAPGETASITCGGNLIGAYLVHWYQQKPGQAPLLVIYDDVDRPARIPERFSGSNSGNTATLTISRVEAGDEADYYCQVWDHNSNHMVFGGGTKLTVL ?
**Result** 1.44e+07

Ref: patent US20240059769A1
